- test.details: Pharmacokinetics in 300/400 mg BID study
- Format: in vivo, human
- test.conditions: female, human, plasma, oral, 300 mg, Repeat dose Day 1, Female 300 mg bid (N = 21); read-out: AUC(0-24)
quantity.kind: AUC(0-t) (ng·h/mL)

INSERT INTO assay_data (compound, result_units, recorded_measurement) VALUES
  ('Cl.NC(=O)[C@@H]1CC[C@H](c2ccc(OCc3ccccc3F)cc2)N1 [Example 1]', 'ng·h/mL', 32400);

----------
- test.details: Pharmacokinetics in 300/400 mg BID study
- Type: in vivo, human
- test.conditions: male, human, plasma, oral, 400 mg, Repeat dose Day 1, Male 400 mg bid (N = 33); read-out: C12 h
quantity.kind: concentration at 12 h (ng/mL)

INSERT INTO results (compound, recorded_measurement) VALUES
  ('Cl.NC(=O)[C@@H]1CC[C@H](c2ccc(OCc3ccccc3F)cc2)N1 [Example 1, hydrochloride]', 889);

----------
- test.details: Carbamazepine interaction study, BIIB074 steady-state PK
- Type: in vivo, human
- test.conditions: human, in vivo, oral, 150 mg, day 21, Placebo (Group 2), BIIB074 150 mg TID; read-out: AUC(0-tau) Adj Geo Mean
quantity.kind: AUC (ng·h/mL)

INSERT INTO results (compound, recorded_measurement) VALUES
  ('Cl.NC(=O)[C@@H]1CC[C@H](c2ccc(OCc3ccccc3F)cc2)N1 [Example 1]', 17500);

----------
- test.details: Pharmacokinetics in 300/400 mg BID study
- Format: in vivo, human
- test.conditions: female, human, plasma, oral, 300 mg bid, Repeat dose Day 14, Female 300 mg bid (N = 21); read-out: AUC(0-12)
- Experimental: The primary endpoint was change in 24 h average SBP and DBP from baseline to day 36 as determined by ABPM. […] ABPM data were analyzed using a repeated measures mixed effects model, whereby fixed effects were treatment, day, treatment*day, period, average baseline*day, period adjusted baseline*day, sex and treatment*sex; random effect was subject; and repeated effect was day. […] PK parameters were calculated by standard non-compartmental analysis according to working practices and using Wn Nonlin Pro v. […]
quantity.kind: AUC(0-t) (ng·h/mL)

INSERT INTO results (compound, result_units, recorded_measurement) VALUES
  ('Cl.NC(=O)[C@@H]1CC[C@H](c2ccc(OCc3ccccc3F)cc2)N1', 'ng·h/mL', 29200);

----------
- test.details: Pharmacokinetics in 300/400 mg BID study
- Format: in vivo, human
- test.conditions: male, human, plasma, oral, 400 mg, Repeat dose Day 14, Male 400 mg bid (N = 33)
quantity.kind: Cmax (ng/mL)

INSERT INTO assay_data (compound, recorded_measurement) VALUES
  ('Cl.NC(=O)[C@@H]1CC[C@H](c2ccc(OCc3ccccc3F)cc2)N1', 4790);

----------
- test.details: Pharmacokinetics in 300/400 mg BID study
- Type: in vivo, human
- test.conditions: female, human, plasma, oral, 300 mg, Repeat dose Day 14, Female 300 mg bid (N = 21); read-out: AUC(0-24)
quantity.kind: AUC(0-t)

INSERT INTO measurements (compound, quantity_kind, recorded_measurement) VALUES
  ('Cl.NC(=O)[C@@H]1CC[C@H](c2ccc(OCc3ccccc3F)cc2)N1', 'AUC(0-t)', '58300 ng·h/mL');

----------
- test.details: Pharmacokinetics in 300/400 mg BID study
- Assay type: in vivo, human
- test.conditions: female, human, plasma, oral, 300 mg, Repeat dose Day 35, Female 300 mg bid (N = 21); read-out: AUC(0-24)
quantity.kind: AUC(0-t) (ng·h/mL)

INSERT INTO measurements (molecule, quantity_kind, result_units, recorded_measurement) VALUES
  ('Cl.NC(=O)[C@@H]1CC[C@H](c2ccc(OCc3ccccc3F)cc2)N1 [Example 1]', 'AUC(0-t)', 'ng·h/mL', 54800);

----------
- test.details: Pharmacokinetics in 300/400 mg BID study
- Type: in vivo, human
- test.conditions: male, human, plasma, oral, 400 mg, Repeat dose Day 35, Male 400 mg bid (N = 33); read-out: AUC(0-24)
quantity.kind: AUC(0-t) (ng·h/mL)

INSERT INTO results (compound, recorded_measurement) VALUES
  ('Cl.NC(=O)[C@@H]1CC[C@H](c2ccc(OCc3ccccc3F)cc2)N1', 60100);

----------
- test.details: Pharmacokinetics in 300/400 mg BID study
- Type: in vivo, human
- test.conditions: male, human, plasma, oral, 400 mg, Repeat dose Day 35, Male 400 mg bid (N = 33); read-out: AUC(0-12)
quantity.kind: AUC(0-t) (ng·h/mL)

INSERT INTO measurements (compound, recorded_measurement) VALUES
  ('Cl.NC(=O)[C@@H]1CC[C@H](c2ccc(OCc3ccccc3F)cc2)N1', 30100);

----------
- test.details: Pharmacokinetics in 300/400 mg BID study
- Format: in vivo, human
- test.conditions: male, human, plasma, oral, 400 mg, Repeat dose Day 14, Male 400 mg bid (N = 33); read-out: AUC(0-24)
quantity.kind: AUC(0-t) (ng·h/mL)

INSERT INTO measurements (molecule, quantity_kind, recorded_measurement) VALUES
  ('Cl.NC(=O)[C@@H]1CC[C@H](c2ccc(OCc3ccccc3F)cc2)N1 [Example 1]', 'AUC(0-t)', 64100);

----------
- test.details: Pharmacokinetics in 300/400 mg BID study
- Format: in vivo, human
- test.conditions: human, plasma, oral; Single Dose (400 mg), Female (N = 22)
quantity.kind: AUC(0-inf) (ng·h/mL)

INSERT INTO measurements (compound, recorded_measurement) VALUES
  ('Cl.NC(=O)[C@@H]1CC[C@H](c2ccc(OCc3ccccc3F)cc2)N1 [Example 1]', 38700);

----------
- test.details: Carbamazepine interaction study, BIIB074 steady-state PK
- Format: in vivo, human
- test.conditions: human, in vivo, oral, 150 mg, day 21, Carbamazepine (Group 1), BIIB074 150 mg TID; read-out: Cmax Adj Geo Mean
- Description: The interaction between BIIB074 and carbamazepine (CBZ) was investigated in a double-blind, randomized, placebo-controlled, 3-period, phase-1 study. Healthy subjects were randomized by sex to either CBZ (100 mg twice daily [BID] days 1-3, 200 mg BID days 4-21) or placebo (BID days 1-21). During days 16-21, subjects in both groups also received BIIB074 150 mg 3-times daily (TID). […]
quantity.kind: Cmax (ng/mL)

INSERT INTO measurements (compound, quantity_kind, recorded_measurement) VALUES
  ('Cl.NC(=O)[C@@H]1CC[C@H](c2ccc(OCc3ccccc3F)cc2)N1', 'Cmax', 2160);

----------
- test.details: Pharmacokinetics in 300/400 mg BID study
- Type: in vivo, human
- test.conditions: female, human, plasma, oral, 300 mg, Repeat dose Day 1, Female 300 mg bid (N = 21)
quantity.kind: Cmax (ng/mL)

INSERT INTO results (compound, recorded_measurement) VALUES
  ('Cl.NC(=O)[C@@H]1CC[C@H](c2ccc(OCc3ccccc3F)cc2)N1', 2570);

----------
- test.details: Pharmacokinetics in 300/400 mg BID study
- Assay type: in vivo, human
- test.conditions: female, human, plasma, oral, 300 mg, Repeat dose Day 14, Female 300 mg bid (N = 21)
quantity.kind: Cmax (ng/mL)

INSERT INTO results (molecule, recorded_measurement) VALUES
  ('Cl.NC(=O)[C@@H]1CC[C@H](c2ccc(OCc3ccccc3F)cc2)N1 [Example 1]', 4030);

----------
- test.details: Pharmacokinetics in 300/400 mg BID study
- Type: in vivo, human
- test.conditions: female, human, plasma, oral, 300 mg, Repeat dose Day 35, Female 300 mg bid (N = 21); read-out: C12 h
quantity.kind: concentration at 12 h

INSERT INTO assay_data (molecule, quantity_kind, recorded_measurement) VALUES
  ('Cl.NC(=O)[C@@H]1CC[C@H](c2ccc(OCc3ccccc3F)cc2)N1 [Example 1, hydrochloride]', 'concentration at 12 h', '1310 ng/mL');

----------
- test.details: Pharmacokinetics in 300/400 mg BID study
- Assay type: in vivo, human
- test.conditions: male, human, plasma, oral, 400 mg, Repeat dose Day 35, Male 400 mg bid (N = 33)
quantity.kind: Tmax (h)

INSERT INTO assay_data (compound, result_units, recorded_measurement) VALUES
  ('Cl.NC(=O)[C@@H]1CC[C@H](c2ccc(OCc3ccccc3F)cc2)N1 [Example 1]', 'h', 1);

----------
- test.details: Pharmacokinetics in 300/400 mg BID study
- Assay type: in vivo, human
- test.conditions: male, human, plasma, oral, 400 mg, Repeat dose Day 14, Male 400 mg bid (N = 33)
- Protocol: The primary endpoint was change in 24 h average SBP and DBP from baseline to day 36 as determined by ABPM. […] ABPM data were analyzed using a repeated measures mixed effects model, whereby fixed effects were treatment, day, treatment*day, period, average baseline*day, period adjusted baseline*day, sex and treatment*sex; random effect was subject; and repeated effect was day. […] PK parameters were calculated by standard non-compartmental analysis according to working practices and using Wn Nonlin Pro v. […]
quantity.kind: Tmax (h)

INSERT INTO results (compound, recorded_measurement) VALUES
  ('Cl.NC(=O)[C@@H]1CC[C@H](c2ccc(OCc3ccccc3F)cc2)N1 [Example 1]', 1);
